Listed below: inhibition at 0.1 µM values for each entry.
biological target: P2X7 receptor (IL-1β release from THP-1 cells) (Homo sapiens); construct: host or cells: THP-1 cells differentiated with LPS and IFN-γ; assay: IL-1β release assay in differentiated THP-1 cells stimulated with BzATP (Example 9); type: cell-based; conditions: 0.1 μM concentration, BzATP 250 uM, read-out: IL-1β % Inhib. @ 0.3 or 0.1 μM

CC(O)Cn1ccc2c(NC(=O)[C@H]3CC[C@H](C)CC3)cccc2c1=O (some centres unmarked) :: 0 to 25%

### Prompt inhibition at 0.1 µM of CC(O)Cn1ccc2c(NC(=O)C34C[C@@H]5C[C@@H](C[C@@H]3C5)C4)cccc2c1=O (some centres unmarked) on P2X7 receptor (IL-1β release from THP-1 cells) (Homo sapiens)?
### Response 0 to 25%

---

Entries and their measured inhibition at 0.3 µM follow.
target: P2X7 receptor (IL-1β release from THP-1 cells) (Homo sapiens, UniProt Q99572); construct: host or cells: THP-1 cells differentiated with LPS and IFN-γ; experiment: IL-1β release assay in differentiated THP-1 cells stimulated with BzATP (Example 9); type: cell-based; settings: 0.3 μM concentration, BzATP 250 uM, read-out: IL-1β % Inhib. @ 0.3 or 0.1 μM

Study these solved cases before continuing.
C[C@H](C(N)=O)n1ccc2c(NC(=O)CC3(O)CCCCCC3)cccc2c1=O :: > 76%
C[C@H](C(=O)O)n1ccc2c(NC(=O)CC34CC5CC(CC(C5)C3)C4)cccc2c1=O :: > 76%
O=C(CC1(O)CCCCCC1)Nc1cccc2c(=O)n(C[C@H]3CCCN3)ccc12 :: > 76%

### Prompt Entry CC(C)[C@H](C(N)=O)n1ccc2c(NC(=O)CC3CCCCCC3)cccc2c1=O : reported inhibition at 0.3 µM = ?
### Response > 76%

### Prompt What value of inhibition at 0.3 µM has been reported for the following molecule? NC(=O)[C@@H](CO)n1ccc2c(NC(=O)CC34CC5CC(CC(C5)C3)C4)cccc2c1=O
### Response > 76%

### Prompt Form field: reported inhibition at 0.3 µM of CC(C)C[C@H](CO)n1ccc2c(NC(=O)CC3CCCCCC3)cccc2c1=O
### Response > 76%

### Prompt Fill blank: measured inhibition at 0.3 µM of the molecule C[C@H](C(=O)NC1CC1)n1ccc2c(NC(=O)CC34CC5CC(CC(C5)C3)C4)cccc2c1=O is ____.
### Response > 76%

### Prompt Can you share its inhibition at 0.3 µM? I mean this molecule: NC(=O)CN1CCc2c(NC(=O)CC34CC5CC(CC(C5)C3)C4)cccc2C1=O
### Response > 76%

### Prompt Give the measured inhibition at 0.3 µM of O=C(CC12CC3CC(CC(C3)C1)C2)Nc1cccc2c(=O)n(CC3CCNCC3)ccc12 .
### Response > 76%

### Prompt Entry CC(C)C(CO)n1ccc2c(NC(=O)CC3CCCCCC3)cccc2c1=O (centres unmarked) has what inhibition at 0.3 µM?
### Response > 76%

---

Biological target: P2X7 receptor (IL-1β release from THP-1 cells) (Homo sapiens)
Experiment: IL-1β release assay in differentiated THP-1 cells stimulated with BzATP (Example 9)
Details: released IL-1β as in Example 9, four parameter logistic fit
Description: The cells are then pretreated for 30 minutes with the compound of interest at the appropriate concentration in RPMI media containing 100 IU/mL penicillin, 100 ug/mL streptomycin. […] 30 uL of cell supernatant is then collected and IL-1β levels determined via ELISA (R&D systems Cat. #HSLB50) according to manufacturer's recommendations using the Tecan Safire plate reader. Background adjusted IL-1β levels of drug treated and non-treated cells are used to calculate the percent inhibition. […]
reported-metric: IC50 (nM)

Answered examples (10):
C[C@H](C(=O)Nc1cccc2c(=O)n([C@H](C)C(N)=O)ccc12)C1CCCCCC1 :: 6.16
CC1(C)CC(CC(=O)Nc2cccc3c(=O)n([C@@H](C(N)=O)c4ccccc4)ccc23)CC(C)(C)C1 :: 4.09
CC(C)(CO)n1ccc2c(NC(=O)CC3CCCCCC3)cccc2c1=O :: 91.4
CC12CC3CC(C)(C1)CC(CC(=O)Nc1cccc4c(=O)n(C(CO)CO)ccc14)(C3)C2 :: 0.11
CC(C)C[C@H](CO)n1ccc2c(NC(=O)CC3(O)CCCCCC3)cccc2c1=O :: 5.59
O=C(CC1(O)CCCCCC1)Nc1cccc2c(=O)n(CCO)ccc12 :: 165
NC(=O)Cn1ccc2c(NC(=O)CC34CC5CC(CC(C5)C3)C4)cccc2c1=O :: 0.271
NC(=O)C(Cc1c[nH]cn1)n1ccc2c(NC(=O)CC34CC5CC(CC(C5)C3)C4)cccc2c1=O (stereo not shown) :: 1.36
CC1(C)CC(C)(C)CC(O)(CC(=O)Nc2cccc3c(=O)n(CCO)ccc23)C1 :: 135
CC(CO)n1ccc2c(NC(=O)CC34CC5CC(CC(C5)C3)C4)cccc2c1=O (stereo not shown) :: 0.33

a = CNC(=O)[C@@H](C(C)C)n1ccc2c(NC(=O)CC34CC5CC(CC(C5)C3)C4)cccc2c1=O
b = CC(C(N)=O)n1ccc2c(NC(=O)CC34CC5CC(C)(CC(C)(C5)C3)C4)cccc2c1=O (stereo not shown)
### Prompt # returns the entry with the larger IC50; inputs a and b Answer by quoting the chosen item's label.
### Response b

I = O=C(CC12CC3CC(CC(C3)C1)C2)Nc1cccc2c(=O)n(C(CO)CO)ccc12
II = O=C(CC1(O)CCCCCC1)Nc1cccc2c(=O)n(C(CO)CO)ccc12
III = O=C(CC12CC3CC(CC(C3)C1)C2)Nc1cccc2c1CCN(CC1CCNCC1)C2=O
IV = NC(=O)CCn1ccc2c(NC(=O)CC34CC5CC(CC(C5)C3)C4)cccc2c1=O
### Prompt Given 4 molecules, produce a descending ranking by IC50. Give your ranking as a list of the labels in the requested order.
### Response II, III, IV, I
(II: 760 nM, III: 7.62 nM, IV: 1.04 nM, I: 0.198 nM)

P = C[C@@H](CO)n1ccc2c(NC(=O)CC34CC5CC(C)(CC(C)(C5)C3)C4)cccc2c1=O
Q = CC1(C)CC(C)(C)CC(O)(CC(=O)Nc2cccc3c(=O)n(C(CO)CO)ccc23)C1
### Prompt // which entry has the larger IC50 value, P or Q ? State your choice using its label.
### Response Q

1 = CC(C)[C@H](C(N)=O)n1ccc2c(NC(=O)CC34CC5CC(CC(C5)C3)C4)cccc2c1=O [Compound 528]
2 = NC(=O)[C@H](CO)n1ccc2c(NC(=O)CC3CCCCCC3)cccc2c1=O
### Prompt # min-compare on IC50 between 1 and 2 Please reply using the label of the selected record.
### Response 1
(1: 0.181 nM, 2: 40.8 nM)

---

Quick reference for inhibition at 0.3 µM among some compounds
Biological target: P2X7 receptor (IL-1β release from THP-1 cells) (Homo sapiens, UniProt Q99572)
Construct: host or cells: THP-1 cells differentiated with LPS and IFN-γ
Sequence (Q99572 1-595): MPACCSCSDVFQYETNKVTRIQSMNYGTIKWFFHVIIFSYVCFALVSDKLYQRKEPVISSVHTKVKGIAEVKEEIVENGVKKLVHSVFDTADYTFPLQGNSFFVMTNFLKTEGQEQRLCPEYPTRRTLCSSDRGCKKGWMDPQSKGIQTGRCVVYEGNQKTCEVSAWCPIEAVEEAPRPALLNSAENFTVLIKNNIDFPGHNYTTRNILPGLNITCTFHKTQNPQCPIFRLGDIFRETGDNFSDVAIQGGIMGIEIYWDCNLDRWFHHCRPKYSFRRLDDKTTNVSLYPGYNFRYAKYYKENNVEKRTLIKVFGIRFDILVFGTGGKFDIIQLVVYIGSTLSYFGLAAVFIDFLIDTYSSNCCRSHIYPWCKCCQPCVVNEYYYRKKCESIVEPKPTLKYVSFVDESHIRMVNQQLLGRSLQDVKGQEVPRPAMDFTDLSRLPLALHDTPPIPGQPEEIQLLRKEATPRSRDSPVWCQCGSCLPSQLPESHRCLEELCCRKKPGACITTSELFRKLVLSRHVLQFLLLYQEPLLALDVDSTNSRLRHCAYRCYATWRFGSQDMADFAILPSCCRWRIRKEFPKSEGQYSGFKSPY
Assay: IL-1β release assay in differentiated THP-1 cells stimulated with BzATP (Example 9)
Assay type: cell-based
Conditions: 0.3 μM concentration, BzATP 250 uM, read-out: IL-1β % Inhib. @ 0.3 or 0.1 μM

C[C@H](CO)n1ccc2c(NC(=O)CC34CC5CC(C)(CC(C)(C5)C3)C4)cccc2c1=O :: > 76%

### Prompt Returns the measured inhibition at 0.3 µM for the input compound. Input: O=C(CC1CCCCCC1)Nc1cccc2c(=O)n(C(CO)CO)ccc12
### Response > 76%

### Prompt Looking for the measured inhibition at 0.3 µM of CC1(C)CCCC(O)(CC(=O)Nc2cccc3c(=O)n(C(CO)CO)ccc23)C1 (centres unmarked) , can you help?
### Response 51 to 75%
